- target_or_system: resting GPIIb/IIIa (Homo sapiens, UniProt P05106+P08514)
- Construct: Platelet rich plasma (PRP) was prepared by centrifugation of whole blood; endogenous in cells
- Sequence (P08514 32-887 limits assumed): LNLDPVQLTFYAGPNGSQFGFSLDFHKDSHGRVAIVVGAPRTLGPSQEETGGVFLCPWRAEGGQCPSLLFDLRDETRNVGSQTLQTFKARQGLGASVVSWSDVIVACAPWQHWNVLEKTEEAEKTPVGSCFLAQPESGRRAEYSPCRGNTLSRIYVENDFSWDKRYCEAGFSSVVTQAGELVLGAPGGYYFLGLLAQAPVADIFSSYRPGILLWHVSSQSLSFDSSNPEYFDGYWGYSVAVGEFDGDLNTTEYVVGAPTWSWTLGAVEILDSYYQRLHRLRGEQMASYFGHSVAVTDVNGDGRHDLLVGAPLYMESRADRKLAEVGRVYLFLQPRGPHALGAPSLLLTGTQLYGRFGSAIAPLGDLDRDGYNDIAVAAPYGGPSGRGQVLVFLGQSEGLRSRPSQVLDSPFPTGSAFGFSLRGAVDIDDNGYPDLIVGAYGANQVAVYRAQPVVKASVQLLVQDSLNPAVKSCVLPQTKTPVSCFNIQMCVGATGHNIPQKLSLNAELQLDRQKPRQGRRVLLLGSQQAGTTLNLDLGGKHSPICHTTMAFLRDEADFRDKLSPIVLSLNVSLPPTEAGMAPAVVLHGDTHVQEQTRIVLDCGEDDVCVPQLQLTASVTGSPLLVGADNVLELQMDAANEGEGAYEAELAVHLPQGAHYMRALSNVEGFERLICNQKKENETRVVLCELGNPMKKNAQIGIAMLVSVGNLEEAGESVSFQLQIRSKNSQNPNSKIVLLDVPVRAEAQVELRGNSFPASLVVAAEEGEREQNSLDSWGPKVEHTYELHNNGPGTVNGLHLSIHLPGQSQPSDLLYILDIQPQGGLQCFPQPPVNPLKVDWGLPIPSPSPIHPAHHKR
- Sequence (P08514 891-1039 partner limits assumed): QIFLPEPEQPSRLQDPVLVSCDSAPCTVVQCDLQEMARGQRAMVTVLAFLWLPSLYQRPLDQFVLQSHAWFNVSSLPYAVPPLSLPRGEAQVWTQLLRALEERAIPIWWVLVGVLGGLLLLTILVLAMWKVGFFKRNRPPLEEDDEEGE
- Sequence (P05106 27-788): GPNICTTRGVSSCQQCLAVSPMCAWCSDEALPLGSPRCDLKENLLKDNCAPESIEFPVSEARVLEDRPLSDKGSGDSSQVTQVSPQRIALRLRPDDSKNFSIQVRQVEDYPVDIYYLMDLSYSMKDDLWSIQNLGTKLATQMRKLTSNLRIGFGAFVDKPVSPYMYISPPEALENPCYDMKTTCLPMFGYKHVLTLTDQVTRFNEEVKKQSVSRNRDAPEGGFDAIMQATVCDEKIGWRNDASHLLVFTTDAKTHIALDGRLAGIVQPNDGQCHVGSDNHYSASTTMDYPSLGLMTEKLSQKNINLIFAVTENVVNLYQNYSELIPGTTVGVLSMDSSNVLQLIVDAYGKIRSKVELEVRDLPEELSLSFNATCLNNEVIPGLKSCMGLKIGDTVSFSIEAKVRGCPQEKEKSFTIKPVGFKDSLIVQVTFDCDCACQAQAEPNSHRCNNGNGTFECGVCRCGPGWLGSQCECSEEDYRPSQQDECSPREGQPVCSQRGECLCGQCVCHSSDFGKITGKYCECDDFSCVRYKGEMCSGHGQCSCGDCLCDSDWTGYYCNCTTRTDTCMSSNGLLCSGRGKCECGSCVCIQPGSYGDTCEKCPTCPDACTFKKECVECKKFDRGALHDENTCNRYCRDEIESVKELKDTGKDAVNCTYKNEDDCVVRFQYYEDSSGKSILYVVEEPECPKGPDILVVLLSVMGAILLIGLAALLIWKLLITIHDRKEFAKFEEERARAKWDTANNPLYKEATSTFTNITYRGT
- measurement_description: Test 2: suppression activity of fibrinogen adhesion of prostaglandin E1 (PGE1)-treated platelet
- assay_conditions: washed PGE1 (1 μM)-treated platelets, plates coated with human fibrinogen 1 μg/well, 37° C. 30 min; read-out: R Suppression of fibrinogen adhesion IC50
pIC50: −log10 of the molar value. Where a name gives a salt, the structure may show the parent alone.
experimental_endpoint: pIC50

1. CC(=O)N[C@@H](CNC(=O)[C@H]1CCCN(C(=O)CCC2CCNCC2)C1)C(=O)O [Ex. 12]
2. N=C(N)c1ccc(C(=O)N[C@@H](Cc2ccc(O)cc2)C(=O)N2CCC(OCC(=O)O)CC2)cc1 [Reference Ex. 3, Lamifiban, reference compound]
Endpoint returns the identifier whose pIC50 is numerically larger, either 1 or 2 . Respond using the label that marks the chosen record.
2
(2: 7.10, 1: 5.29)

P. CCC(=O)N[C@@H](CNC(=O)[C@@H]1CCCN(C(=O)CCC2CCNCC2)C1)C(=O)O [Ex. 8]
Q. CN(CC(=O)c1ccc(OCC(=O)O)c(OCC(=O)O)c1)C(=O)/C=C/C1CCNCC1 [Ex. 1, hydrochloride]
Endpoint returns the identifier whose pIC50 is numerically larger, either P or Q . Respond using the label that marks the chosen record.
P
(P: 5.82, Q: 5.10)

1. N=C(N)c1ccc(OCC(=O)Nc2ccc(OCC(=O)O)c(C(=O)O)c2)cc1 [Ex. 4]
2. CC(=O)OCC(=O)N[C@H](CNC(=O)[C@@H]1CCCN(C(=O)CCC2CCNCC2)C1)C(=O)O [Ex. 9]
3. CC(C)CCCOc1ccc(C(=O)N[C@@H](CNC(=O)[C@H]2CCCN(C(=O)CCC3CCNCC3)C2)C(=O)O)cc1 [Ex. 18]
4. COc1cc(C(=O)CN(C)C(=O)/C=C/C2CCNCC2)ccc1OCC(=O)O [Ex. 14]
5. CC(=O)N[C@@H](CNC(=O)[C@@H]1CCCN(C(=O)/C=C/C2CCNCC2)C1)C(=O)O [Ex. 6]
Rank order required: pIC50, descending. Use the labels to give the ranking in the order requested.
3, 5, 2, 1, 4
(3: 7.32, 5: 6.36, 2: 6.14, 1: 5.79, 4: 5.39)

I. CC(NCOc1ccc(C(=N)N)cc1)C(=O)N[C@@H](CC(=O)O)C(=O)N[C@@H](C(=O)N1CCS(=O)(=O)CC1)C(C)C (stereo partly drawn) [Ex. 3]
II. COc1ccc(CCC(=O)N[C@@H](CNC(=O)[C@@H]2CCCN(C(=O)CCC3CCNCC3)C2)C(=O)O)cc1 [Ex. 11]
III. CC(C)CC(=O)Nc1cccc(C(=O)N[C@@H](CNC(=O)[C@H]2CCCN(C(=O)CCC3CCNCC3)C2)C(=O)O)c1 [Ex. 20]
Rank order required: pIC50, descending. Use the labels to give the ranking in the order requested.
III, II, I
(III: 6.62, II: 6.32, I: 5.87)

###

- target_or_system: active GPIIb/IIIa (Homo sapiens, UniProt P05106+P08514)
- Construct: Platelet rich plasma (PRP) containing 3×10^8 platelets/ml was prepared from human blood; endogenous in cells
- Sequence (P08514 32-887 limits assumed): as the sequence (P08514 32-887 limits assumed) above
- Sequence (P08514 891-1039 partner limits assumed): as the sequence (P08514 891-1039 partner limits assumed) above
- Sequence (P05106 27-788): as the sequence (P05106 27-788) above
- measurement_description: Test 1: inhibitory activity of adenosine diphosphate (ADP)-induced platelet aggregation in platelet rich plasma
- Format: cell-based
- assay_conditions: IC50 (R) of Test 2 / IC50 (A) of Test 1; selective binding ability toward the active GPIIb/IIIa
Where a name gives a salt, the structure may show the parent alone.
experimental_endpoint: R/A ratio

I. N=C(N)c1ccc(C(=O)N[C@@H](Cc2ccc(O)cc2)C(=O)N2CCC(OCC(=O)O)CC2)cc1 [Reference Ex. 3, Lamifiban, reference compound]
II. CN(CC(=O)c1ccc(OCC(=O)O)c(OCC(=O)O)c1)C(=O)/C=C/C1CCNCC1 [Ex. 1, hydrochloride]
III. CC(=O)N[C@@H](CNC(=O)[C@@H]1CCCN(C(=O)/C=C/C2CCNCC2)C1)C(=O)O [Ex. 6]
IV. CC(=O)OCC(=O)N[C@H](CNC(=O)[C@@H]1CCCN(C(=O)CCC2CCNCC2)C1)C(=O)O [Ex. 9]
Please list these compounds in decreasing order of R/A ratio. Use the labels to give the ranking in the order requested.
II, IV, III, I
(II: 59, IV: 13, III: 7.8, I: 1.8)
